- Test system: Oryza sativa, (L.) Tebonnet
- ASSAY_OVERVIEW: Rice tolerance to post-transplant applications under flooded paddy conditions (Example 187), ORYSAT (Rice, Tebonnet); note: meaning of each grade not given here
- CONDITION_LABEL: Rate 0.0620 kg/ha, rated 3-4 weeks after treatment
ASSAY_ENDPOINT: herbicidal effect rating ORYSAT

• CCS(=O)(=O)NC(=O)COc1ccc(C)cc1-c1nsc2ccc(-n3c(=O)cc(C(F)(F)F)n(C)c3=O)cc12 = 4.0
• CCCCCCCCCOC(=O)COc1ccc(C)cc1-c1nsc2ccc(-n3c(=O)cc(C(F)(F)F)n(C)c3=O)cc12 = 4.0
• CON(C)C(=O)/C=C/c1nsc2ccc(-n3c(=O)cc(C(F)(F)F)n(C)c3=O)cc12 = 0.0
• CC(Oc1ccccc1-c1nsc2ccc(-n3c(=O)cc(C(F)(F)F)n(C)c3=O)cc12)C(=O)N(C)C (centres unmarked) = 0.0
• COCCCOCCCOC(=O)COc1ccc(C)cc1-c1nsc2ccc(-n3c(=O)cc(C(F)(F)F)n(C)c3=O)cc12 [Example 523] = 4.5
• C#CC(C)OC(=O)C(C)(C)Oc1ccc(C)cc1-c1nsc2ccc(-n3c(=O)cc(C(F)(F)F)n(C)c3=O)cc12 (centres unmarked) = 0.0
• C=CCOC(=O)C(C)(C)Oc1ccc(C)cc1-c1nsc2ccc(-n3c(=O)cc(C(F)(F)F)n(C)c3=O)cc12 = 0.0
• Cc1ccc(OCC(=O)OCC(C)(C)Cc2ccccc2)c(-c2nsc3ccc(-n4c(=O)cc(C(F)(F)F)n(C)c4=O)cc23)c1 = 2.5
• COCCCOCCCOC(=O)COc1ccc(C)cc1-c1nsc2ccc(-n3c(=O)cc(C(F)(F)F)n(C)c3=O)cc12 [Example 536] = 0.0
• CCOC(=O)c1ccc(NC(=O)C(C)Oc2ccc(C)cc2-c2nsc3ccc(-n4c(=O)cc(C(F)(F)F)n(C)c4=O)cc23)cc1 (centres unmarked) = 0.0
• Cc1ccc(OC(C)(C)C(=O)OC(C)C)c(-c2nsc3ccc(-n4c(=O)cc(C(F)(F)F)n(C)c4=O)cc23)c1 = 3.0
• Cc1ccc(OC(C)(C)C(=O)OCCCl)c(-c2nsc3ccc(-n4c(=O)cc(C(F)(F)F)n(C)c4=O)cc23)c1 = 9.0
• CSCCCCOC(=O)COc1ccc(C)cc1-c1nsc2ccc(-n3c(=O)cc(C(F)(F)F)n(C)c3=O)cc12 = 2.0
• Cc1ccc(OCC(=O)C(C)(C)C)c(-c2nsc3ccc(-n4c(=O)cc(C(F)(F)F)n(C)c4=O)cc23)c1 = 0.0

----------
- Tested on: Cyperus serotinus, Rottb.
- ASSAY_OVERVIEW: Preemergence weed control under flooded paddy conditions, CYPSE (Flatsedge); note: meaning of each grade not given here
- Format: in vivo
- CONDITION_LABEL: 0.0625 kg/ha, preemergence weeds, rated three to four weeks after treatment
ASSAY_ENDPOINT: herbicidal effect rating, CYPSE

• CCN(CC)c1nsc2ccc(-n3c(=O)cc(C(F)(F)F)n(C)c3=O)cc12 = 0.0
• Cn1c(C(F)(F)F)cc(=O)n(-c2ccc3snc(C(CCl)CCl)c3c2)c1=O = 0.0
• COCCOC(=O)COc1ccc(C)cc1-c1nsc2ccc(-n3c(=O)cc(C(F)(F)F)n(C)c3=O)cc12 = 0.0
• C=CC(C)OCc1nsc2ccc(-n3c(=O)cc(C(F)(F)F)n(C)c3=O)cc12 (centres unmarked) = 2.0
• Cc1ccc(OC2CC(C)OC2=O)c(-c2nsc3ccc(-n4c(=O)cc(C(F)(F)F)n(C)c4=O)cc23)c1 (racemic) = 0.0
